System: Staphylococcus aureus
assay_name: Antibacterial activity against Staphylococcus aureus at 50 ug/ml after 24 hrs by agar well diffusion method
Format: functional
reported_conditions: read-out: DIZ

# compound, zone of inhibition at 50 µg/mL
data = [
    ("Cc1ccc(NS(=O)(=O)Cc2nnc(CS(=O)(=O)/C=C/S(=O)(=O)c3ccc(C)cc3)s2)cc1", "18 mm"),
    ("O=C(N[C@H](CO)[C@H](O)c1ccc([N+](=O)[O-])cc1)C(Cl)Cl", "33 mm"),
    ("O=S(=O)(Cc1nnc(CS(=O)(=O)c2c[nH]nc2S(=O)(=O)c2ccccc2)s1)Nc1ccccc1", "16 mm"),
    ("Cc1ccc(NS(=O)(=O)Cc2nnc(CS(=O)(=O)c3c[nH]nc3S(=O)(=O)c3ccc(C)cc3)n2N)cc1", "16 mm"),
    ("O=S(=O)(Cc1nnc(CS(=O)(=O)C2CNN=C2S(=O)(=O)c2ccc(Cl)cc2)s1)Nc1ccc(Cl)cc1 (stereo not drawn)", "24 mm"),
    ("Cc1ccc(NS(=O)(=O)Cc2nnc(CS(=O)(=O)c3c[nH]cc3S(=O)(=O)c3ccc(C)cc3)s2)cc1", "14 mm"),
    ("Cc1ccc(NS(=O)(=O)Cc2nnc(CS(=O)(=O)c3c[nH]cc3S(=O)(=O)c3ccc(C)cc3)n2N)cc1", "16 mm"),
    ("Nn1c(CS(=O)(=O)Nc2ccccc2)nnc1CS(=O)(=O)c1c[nH]cc1S(=O)(=O)c1ccccc1", "17 mm"),
]
